tested on: UO-31; assay: NCI tumour cell line growth inhibition, 48 h
Counter-ions that a name gives are not always drawn. Calls of active or inactive are those of the source. Rule as the data show it: active = GI50 up to about 1.1 µM and inactive = higher.
Parameter: GI50

Consider the reported GI50 for these compounds:
In [3]: df
Out[3]:
                                   compound  system_tested              observed
0     O=[N+]([O-])/C=C/COCc1cc2c(cc1Br)OCO2          UO-31    17.2 µM (inactive)
1  CCOC(=O)C1(Cc2ccc(C)cc2)Cc2ccc(C)cc2C1=O (configuration not stated)          UO-31    38.5 µM (inactive)
2  COc1cc2c(cc1OC)CC(=O)c1cc(OC)c(OC)cc1/C=C\2          UO-31  > 12.5 µM (inactive)
3  [O-][Cl+3]([O-])([O-])O.c1ccc(/N=c2\snc(-c3ccccc3)s2)cc1          UO-31   > 100 µM (inactive)
4         NCCCCN [PUTRESCINE HYDROCHLORIDE]          UO-31   > 100 µM (inactive)

For every listed record, write down its GI50.
1. c1ccc(-c2ccc(/N=N/N3CCCC3)cc2)cc1
2. Cc1nc2c(o1)C(=O)c1ccccc1/C2=N\c1ccccc1

1. > 100 µM (inactive)
2. 2.98 µM (inactive)

Where these numbers come from: ChEMBL document CHEMBL1201862
